Data credit: the supplement of paper PMC10567573

B1: PRPH (parent)
chain: DEIEFLKKLHEEELRDLQVSVESQ

Variants of: B1
Assay: protein stability index of a GFP-peptide fusion (GPS, HEK-293T) (PSI 1-6); higher = more stable;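 also: lentivirally expressed fusions sorted by FACS into six bins by GFP to DsRed ratio, PSI derived from sequencing read proportions per bin multiplied by bin number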
Conditions: c terminus: a fixed tail appended
Answer No if protein stability index is under 5, and Yes if it is 5 or more.

## Task In plain terms: is recorded protein stability index at least 5 for E13R ?
## Result No

## Task Continue with D1Q
## Result No

## Task Proceed to I3A
## Result Yes

## Task Also, E4M please.
## Result No

## Task Similarly, V19F ?
## Result No

## Task Entry E11V please
## Result No

## Task Likewise for E2Y ?
## Result No

## Task Quick one: K8P
## Result Yes

## Task Now this one: V21R
## Result No

## Task Record: F5K
## Result No

## Task Similarly, Q24P ?
## Result No

## Task Then this variant: K7N
## Result Yes

## Task How about E13F ?
## Result No

## Task # repeat for L6V
## Result No

## Task What do you have for K7E ?
## Result No

## Task Same again, this time with E11Y
## Result No

## Task One more variant: I3Y
## Result No

## Task Entry E4Y please
## Result No

## Task Try this variant next: R15L
## Result No

## Task And then E22P , what is it?
## Result Yes

## Task Next variant up: E11P
## Result No

## Task Same question for L6H please.
## Result Yes

## Task Same question, L9M this time
## Result No

## Task Could you do the same for S23C , please?
## Result No

## Task Entry V21W please
## Result No

## Task // repeat for V21N and report
## Result Yes

## Task Please answer likewise for I3V
## Result No
